molecular target: Tubulin; assay: Inhibition of tubulin polymerization (unknown origin) by fluorescence analysis
metric.name: pIC50
The value called pIC50 is obtained by taking minus log10 of the concentration in mol/L.

COc1ccc(/C=C2\Cc3c(cc(OC)c(OC)c3OC)C2=O)cc1Br	5.04
COc1ccc(/C=C2\Cc3c(cc(OC)c(OC)c3OC)C2=O)cc1O	5.12
COc1ccc(/C=C2\Cc3c(cc(OC)c(OC)c3OC)C2=O)cc1	5.02

Alright, here's another molecule for you.
Need pIC50 of COc1ccc(/C=C2\Cc3c(cc(OC)c(OC)c3OC)C2=O)cc1N , thanks.
5.06

###

test system: A549; experiment: Antiproliferative activity against human A549 cells after 48 hrs by MTT assay; format: functional; details: A549, 48 h
# GI50 per record follows
Numbers only here, please. The scale is nM.

Worked set:
COc1ccc(/C=C2\CCc3c(cc(OC)c(OC)c3OC)C2=O)cc1F	15400
COc1ccc(/C=C2\Cc3c(cc(OC)c(OC)c3OC)C2=O)cc1OC	9740
COc1ccc(/C=C2\Cc3c(cc(OC)c(OC)c3OC)C2=O)cc1O	249

Need GI50 of COc1ccc(/C=C\c2cc(OC)c(OC)c(OC)c2)cc1O [COMBRETASTATIN A4] , thanks.
18
